Molecular target: integrin α4β1 (RAMOS human cells adhering to VCAM-1) (Homo sapiens, UniProt P05556+P13612)
Construct: Ramos cells, which express integrin α4β1; host or cells: RAMOS
Assay: Integrin α4β1-VCAM cell adhesion assay (RAMOS cells)
Format: cell-based
Conditions: Ramos cells adhering to VCAM; read-out: Ramos Adhesion α4β1/VCAM IC50
Method: Integrin α4β1-VCAM Cell Adhesion Assay The plate was incubated overnight at 4° C. and washed twice with 150 μl per well wash buffer (0.05% Tween 20 in PBS), blocked with 250 μl per well blocking buffer (1% non-fat dry milk in PBS), for 1 hour at room temperature. […] To calculate the dose response, the fluorescence value of control wells not containing cells was subtracted from each test well.
pIC50: −log10 of the molar value.

| Item Smiles | Study Target | pIC50 |
| --- | --- | --- |
| CC(C)C[C@@H]1NC(=O)C[C@H](CCCCN)N(C)C(=O)[C@H](CCCCNC(=O)CCCCCCCC(=O)NCCCC[C@@H]2NC(=O)[C@@H]3CCCN3[C@H](C(=O)NC(C)(C)C)[C@H](C)NC(=O)[C@H]([C@@H](C)O)NC(=O)[C@H](CC(=O)O)NC(=O)[C@H](CC(C)C)NC(=O)C[C@H](CCCCN)N(C)C2=O)NC(=O)[C@@H]2CCCN2[C@H](C(=O)NC(C)(C)C)[C@H](C)NC(=O)[C@H]([C@@H](C)O)NC(=O)[C@H](CC(=O)O)NC1=O | integrin α4β1 (RAMOS human cells adhering to VCAM-1) (Homo sapiens, UniProt P05556+P13612) | 5.37 |
| COc1cc(C(=O)N2CCN(c3ccc(-c4ccc5cc4CNC(=O)[C@@H]4CCCN4[C@H](C(=O)NC(C)(C)C)[C@H](C)NC(=O)[C@H]([C@@H](C)O)NC(=O)[C@H](CC(=O)O)NC(=O)[C@H](CC(C)C)NC5=O)cc3)CC2)cc(-c2ccc(C(=O)N3CCN(c4ccc(-c5ccc6cc5CNC(=O)[C@@H]5CCCN5[C@H](C(=O)NC(C)(C)C)[C@H](C)NC(=O)[C@H]([C@@H](C)O)NC(=O)[C@H](CC(=O)O)NC(=O)[C@H](CC(C)C)NC6=O)cc4)CC3)cc2F)c1 | integrin α4β1 (RAMOS human cells adhering to VCAM-1) (Homo sapiens, UniProt P05556+P13612) | 5.81 |

====

Consider the following molecules and their measured ELISA Assay Ratio b1/b7 readings.
Target: recombinant integrin α4β7 (Homo sapiens, UniProt P13612+P26010, DEL724-798)
Construct: purchased R&D Systems 5397-A3-050
Sequence (P13612 34-970 limits assumed): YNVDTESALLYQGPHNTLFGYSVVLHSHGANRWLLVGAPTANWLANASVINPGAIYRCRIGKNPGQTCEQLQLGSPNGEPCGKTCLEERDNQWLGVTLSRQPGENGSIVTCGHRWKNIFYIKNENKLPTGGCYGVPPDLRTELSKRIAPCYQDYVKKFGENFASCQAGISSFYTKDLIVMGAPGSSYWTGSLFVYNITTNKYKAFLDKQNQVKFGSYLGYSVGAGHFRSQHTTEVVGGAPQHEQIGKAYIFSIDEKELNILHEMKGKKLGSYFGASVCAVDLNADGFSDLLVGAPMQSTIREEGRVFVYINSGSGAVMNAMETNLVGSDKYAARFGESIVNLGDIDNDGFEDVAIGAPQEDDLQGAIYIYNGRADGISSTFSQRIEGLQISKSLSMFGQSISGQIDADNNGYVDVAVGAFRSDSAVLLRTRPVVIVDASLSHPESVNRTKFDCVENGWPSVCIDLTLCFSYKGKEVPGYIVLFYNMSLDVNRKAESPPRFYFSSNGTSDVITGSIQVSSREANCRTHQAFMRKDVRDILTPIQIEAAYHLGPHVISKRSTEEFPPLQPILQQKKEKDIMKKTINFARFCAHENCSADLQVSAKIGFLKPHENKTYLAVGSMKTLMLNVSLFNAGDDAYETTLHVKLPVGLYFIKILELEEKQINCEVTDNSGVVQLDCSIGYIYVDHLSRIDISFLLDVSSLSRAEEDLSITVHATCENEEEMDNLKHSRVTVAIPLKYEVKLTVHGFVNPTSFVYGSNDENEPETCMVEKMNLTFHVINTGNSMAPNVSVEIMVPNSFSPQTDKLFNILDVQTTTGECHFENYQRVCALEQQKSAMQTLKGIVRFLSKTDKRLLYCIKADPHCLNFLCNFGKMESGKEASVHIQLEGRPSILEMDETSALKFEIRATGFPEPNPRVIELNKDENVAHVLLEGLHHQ
Sequence (P26010 20-723 limits assumed): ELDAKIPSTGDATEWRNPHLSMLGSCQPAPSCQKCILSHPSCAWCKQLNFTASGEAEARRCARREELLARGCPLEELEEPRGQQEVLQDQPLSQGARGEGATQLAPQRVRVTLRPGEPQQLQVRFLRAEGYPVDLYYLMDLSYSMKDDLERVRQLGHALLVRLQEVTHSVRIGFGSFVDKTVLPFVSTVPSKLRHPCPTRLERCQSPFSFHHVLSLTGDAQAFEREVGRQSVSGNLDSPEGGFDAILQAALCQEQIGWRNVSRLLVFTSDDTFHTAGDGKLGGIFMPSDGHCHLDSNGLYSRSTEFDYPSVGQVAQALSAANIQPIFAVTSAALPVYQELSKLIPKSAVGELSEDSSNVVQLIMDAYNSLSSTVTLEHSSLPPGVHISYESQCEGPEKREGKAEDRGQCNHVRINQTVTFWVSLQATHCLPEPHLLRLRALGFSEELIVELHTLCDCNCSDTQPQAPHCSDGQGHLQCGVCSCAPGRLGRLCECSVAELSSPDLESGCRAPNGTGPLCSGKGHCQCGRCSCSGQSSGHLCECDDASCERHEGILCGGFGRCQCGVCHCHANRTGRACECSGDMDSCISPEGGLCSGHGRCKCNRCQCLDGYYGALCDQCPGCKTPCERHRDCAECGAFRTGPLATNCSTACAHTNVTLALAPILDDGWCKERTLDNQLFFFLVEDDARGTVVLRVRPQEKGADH
Assay: Integrin α4β7—MAdCAM-1 ELISA competition assay
Assay type: binding
Settings: ratio of a4b1 to a4b7 ELISA IC50
Readout: ELISA Assay Ratio b1/b7

| Item Smiles | Readout | Number |
| --- | --- | --- |
| CC(C)C[C@@H]1NC(=O)[C@@H](CCCCN)NC(=O)[C@H](Cc2ccc(-c3ccccc3)cc2)NC(=O)[C@@H]2CCCN2[C@H](C(=O)NC(C)(C)C)[C@H](C)NC(=O)[C@H]([C@@H](C)O)NC(=O)[C@H](CC(=O)O)NC1=O | ELISA Assay Ratio b1/b7 | 21.3 |
| CC(C)C[C@@H]1NC(=O)C[C@H](CCCCN)NC(=O)[C@](C)(Cc2ccccc2)NC(=O)[C@@H]2CCCN2[C@H](C(=O)NC(C)(C)C)[C@H](C)NC(=O)[C@H]([C@@H](C)O)NC(=O)[C@H](CC(=O)O)NC1=O | ELISA Assay Ratio b1/b7 | 23.1 |
| CC(C)C[C@@H]1NC(=O)CN(C)C(=O)[C@H](Cc2csc(-c3cccnc3)n2)NC(=O)[C@@H]2CCCN2[C@H](C(=O)NC(C)(C)C)[C@H](C)NC(=O)[C@H]([C@@H](C)O)NC(=O)[C@H](CC(=O)O)NC1=O | ELISA Assay Ratio b1/b7 | 12.6 |
| Cc1cccc(C)c1-c1cccc(C[C@@H]2NC(=O)[C@@H]3CCCN3[C@H](C(=O)NC(C)(C)C)[C@H](C)NC(=O)[C@H]([C@@H](C)O)NC(=O)[C@H](CC(=O)O)NC(=O)[C@H](CC(C)C)NC(=O)C[C@H](CCCCN)NC2=O)c1 | ELISA Assay Ratio b1/b7 | 46.2 |
| CC(C)C[C@@H]1NC(=O)[C@@H](CCCNC(=N)N)N(C)C(=O)[C@H](Cc2ccc(O)cc2)NC(=O)[C@@H]2CCCN2[C@H](C(=O)NC(C)(C)C)[C@H](C)NC(=O)[C@H]([C@@H](C)O)NC(=O)[C@H](CC(=O)O)NC1=O | ELISA Assay Ratio b1/b7 | 55.3 |
| CC(C)C[C@@H]1NC(=O)C2(Cc3ccccc3C2)NC(=O)[C@@H]2CCCN2[C@H](C(=O)NC(C)(C)C)[C@H](C)NC(=O)[C@H]([C@@H](C)O)NC(=O)[C@H](CC(=O)O)NC1=O | ELISA Assay Ratio b1/b7 | 14.4 |
| CC(C)C[C@@H]1NC(=O)[C@H](Cc2csc(-c3ccncc3)n2)NC(=O)[C@@H]2CCCN2[C@H](C(=O)NC(C)(C)C)[C@H](C)NC(=O)[C@H]([C@@H](C)O)NC(=O)[C@H](CC(=O)O)NC1=O | ELISA Assay Ratio b1/b7 | 2.5 |
| CC(C)C[C@@H]1NC(=O)C2(CCCC2)NC(=O)[C@@H]2CCCN2[C@H](C(=O)NC(C)(C)C)[C@H](C)NC(=O)[C@H]([C@@H](C)O)NC(=O)[C@H](CC(=O)O)NC1=O | ELISA Assay Ratio b1/b7 | 14.9 |
| CC(C)C[C@@H]1NC(=O)[C@H](Cc2ccc(O)cc2)NC(=O)[C@@H]2CCCN2[C@H](C(=O)NC(C)(C)C)[C@H](C)NC(=O)[C@H](C(C)(C)S)NC(=O)[C@H](CC(=O)O)NC1=O | ELISA Assay Ratio b1/b7 | 1.1 |
